- system: full-length ATR (Homo sapiens, UniProt Q13535)
- Construct: Assays were carried out at 25° C. in the presence of 5 nM full-length ATR
- Sequence (Q13535 whole entry): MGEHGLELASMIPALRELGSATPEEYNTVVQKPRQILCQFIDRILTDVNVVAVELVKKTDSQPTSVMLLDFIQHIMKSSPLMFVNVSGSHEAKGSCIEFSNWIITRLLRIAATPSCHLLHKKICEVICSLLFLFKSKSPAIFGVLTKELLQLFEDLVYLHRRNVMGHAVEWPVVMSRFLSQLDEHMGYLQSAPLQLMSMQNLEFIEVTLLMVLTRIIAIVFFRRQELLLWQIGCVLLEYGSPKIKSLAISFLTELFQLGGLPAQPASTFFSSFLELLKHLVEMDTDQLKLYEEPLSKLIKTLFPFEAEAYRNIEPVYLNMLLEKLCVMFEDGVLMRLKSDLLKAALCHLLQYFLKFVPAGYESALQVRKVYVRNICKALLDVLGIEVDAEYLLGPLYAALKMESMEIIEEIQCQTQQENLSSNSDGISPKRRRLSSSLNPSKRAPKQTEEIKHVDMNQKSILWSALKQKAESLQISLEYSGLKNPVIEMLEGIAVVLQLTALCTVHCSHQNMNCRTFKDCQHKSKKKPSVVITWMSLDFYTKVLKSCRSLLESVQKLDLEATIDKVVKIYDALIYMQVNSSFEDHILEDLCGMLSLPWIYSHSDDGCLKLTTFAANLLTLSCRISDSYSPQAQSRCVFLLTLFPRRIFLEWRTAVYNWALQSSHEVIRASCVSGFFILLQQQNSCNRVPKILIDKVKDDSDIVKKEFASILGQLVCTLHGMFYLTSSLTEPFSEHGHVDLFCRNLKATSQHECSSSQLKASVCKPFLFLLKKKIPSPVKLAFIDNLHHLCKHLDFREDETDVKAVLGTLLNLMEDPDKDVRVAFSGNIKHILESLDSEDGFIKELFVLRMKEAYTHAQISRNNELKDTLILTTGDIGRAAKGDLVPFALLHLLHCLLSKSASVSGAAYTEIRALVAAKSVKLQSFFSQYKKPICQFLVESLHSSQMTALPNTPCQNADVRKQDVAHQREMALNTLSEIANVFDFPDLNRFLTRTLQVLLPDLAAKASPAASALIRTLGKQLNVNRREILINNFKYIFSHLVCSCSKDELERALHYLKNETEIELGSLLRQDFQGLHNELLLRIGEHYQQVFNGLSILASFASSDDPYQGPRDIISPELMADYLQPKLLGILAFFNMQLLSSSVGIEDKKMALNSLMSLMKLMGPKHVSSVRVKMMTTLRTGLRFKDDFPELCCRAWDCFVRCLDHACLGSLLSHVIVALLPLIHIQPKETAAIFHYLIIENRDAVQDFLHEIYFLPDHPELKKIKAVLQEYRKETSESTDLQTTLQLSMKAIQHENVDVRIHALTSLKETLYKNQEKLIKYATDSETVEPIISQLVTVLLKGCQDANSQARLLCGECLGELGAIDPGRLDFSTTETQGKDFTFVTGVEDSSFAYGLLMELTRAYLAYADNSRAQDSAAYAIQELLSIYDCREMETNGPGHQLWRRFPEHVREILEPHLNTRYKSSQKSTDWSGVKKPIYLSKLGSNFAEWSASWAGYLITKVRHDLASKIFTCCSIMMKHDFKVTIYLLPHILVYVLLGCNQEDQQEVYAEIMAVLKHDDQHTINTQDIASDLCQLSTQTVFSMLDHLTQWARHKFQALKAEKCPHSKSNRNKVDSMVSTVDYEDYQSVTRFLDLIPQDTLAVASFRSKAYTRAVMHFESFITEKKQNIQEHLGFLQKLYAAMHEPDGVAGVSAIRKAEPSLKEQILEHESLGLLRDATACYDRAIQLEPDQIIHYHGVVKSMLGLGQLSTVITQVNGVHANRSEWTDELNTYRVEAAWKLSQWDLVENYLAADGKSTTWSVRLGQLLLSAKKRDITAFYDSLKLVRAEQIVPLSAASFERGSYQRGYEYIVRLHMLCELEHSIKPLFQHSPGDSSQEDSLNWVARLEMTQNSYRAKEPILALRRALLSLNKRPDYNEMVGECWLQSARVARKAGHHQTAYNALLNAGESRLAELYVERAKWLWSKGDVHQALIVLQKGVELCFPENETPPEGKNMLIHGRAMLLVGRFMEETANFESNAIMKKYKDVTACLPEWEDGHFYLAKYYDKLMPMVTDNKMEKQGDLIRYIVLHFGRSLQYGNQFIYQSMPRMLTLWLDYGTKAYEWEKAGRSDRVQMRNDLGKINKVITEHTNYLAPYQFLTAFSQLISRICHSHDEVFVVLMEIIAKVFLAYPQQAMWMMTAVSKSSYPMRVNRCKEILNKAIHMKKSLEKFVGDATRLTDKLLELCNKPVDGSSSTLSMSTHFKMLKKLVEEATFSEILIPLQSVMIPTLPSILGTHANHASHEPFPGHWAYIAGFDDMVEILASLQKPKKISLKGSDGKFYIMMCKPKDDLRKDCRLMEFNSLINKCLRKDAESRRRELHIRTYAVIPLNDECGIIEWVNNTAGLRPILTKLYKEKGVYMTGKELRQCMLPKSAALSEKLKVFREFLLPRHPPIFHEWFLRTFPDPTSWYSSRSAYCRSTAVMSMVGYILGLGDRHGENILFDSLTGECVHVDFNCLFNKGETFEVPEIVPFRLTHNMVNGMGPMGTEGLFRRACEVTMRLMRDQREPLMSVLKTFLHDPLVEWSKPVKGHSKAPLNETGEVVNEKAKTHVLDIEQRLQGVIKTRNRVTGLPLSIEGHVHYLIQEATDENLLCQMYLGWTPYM
- experiment-notes: ATR Inhibition Assay (radioactive-phosphate incorporation)
- Format: biochemical
- conditions-used: Ki(app); 5 nM full-length ATR, 10 μM ATP, 800 μM target peptide, 25° C.
Below is a list of entries, each paired with its recorded Ki value.

| compound | Ki |
| --- | --- |
| CC(C)S(=O)(=O)c1ccc(-c2cnc3[nH]cc(N4Cc5ccc(NCCN(C)C)cc5C4=O)c3n2)cc1 [Compound I-26] | ≤ 50 nM |
| CC(C)S(=O)(=O)c1ccc(-c2cnc3[nH]cc(N4Cc5ccc(OCCN(C)C)cc5C4=O)c3n2)cc1 [Compound I-46] | ≤ 50 nM |
| O=C1c2c(Cl)cccc2CN1c1c[nH]c2ncc(-c3ccc(S(=O)(=O)C4CCCNC4)cc3)nc12 (centres unmarked) [Compound I-24] | ≤ 50 nM |
| CC(C)S(=O)(=O)c1ccc(-c2cnc3[nH]cc(N4Cc5ccc(N6CC[C@H](N)C6)cc5C4=O)c3n2)cc1 [Compound I-27] | ≤ 50 nM |
| CC(C)S(=O)(=O)c1ccc(-c2cnc3[nH]cc(N4C(=O)c5ccccc5C4CCO)c3n2)cc1 (centres unmarked) [Compound I-48] | ≤ 50 nM |
| CC(C)S(=O)(=O)c1ccc(-c2cnc3[nH]cc(N4Cc5cc(N6CCC(N(C)C)CC6)ccc5C4=O)c3n2)cc1 [Compound I-37] | ≤ 50 nM |
| CC(C)S(=O)(=O)c1ccc(-c2cnc3[nH]cc(N4Cc5cc(N6CCCC(N)C6)ccc5C4=O)c3n2)cc1 (centres unmarked) [Compound I-30] | ≤ 50 nM |
| CC(C)S(=O)(=O)c1ccc(-c2cnc3[nH]cc(N4Cc5c(Cl)cccc5C4=O)c3n2)cc1 [Compound I-11] | 50 to 100 nM |
| CC(C)(C#N)c1cc(-c2cnc3[nH]cc(N4Cc5ccccc5C4=O)c3n2)ccn1 [Compound I-6] | ≤ 50 nM |
| CC(C)S(=O)(=O)c1ccc(-c2cnc3[nH]cc(N4Cc5cc(NCCN)ccc5C4=O)c3n2)cc1 [Compound I-34] | ≤ 50 nM |
| CC(C)S(=O)(=O)c1ccc(-c2cnc3[nH]cc(N4Cc5cccc(N(C)C)c5C4=O)c3n2)cc1 [Compound I-45] | ≤ 50 nM |
| CC(C)S(=O)(=O)c1ccc(-c2cnc3[nH]cc(N4CCc5ccccc5C4=O)c3n2)cc1 [Compound I-2] | 100 to 250 nM |
| CC(C)S(=O)(=O)c1ccc(-c2cnc3[nH]cc(N4Cc5cc(N6CCCNCC6)ccc5C4=O)c3n2)cc1 [Compound I-38] | ≤ 50 nM |
| CC(C)S(=O)(=O)c1ccc(-c2cnc3[nH]cc(N4Cc5cc(N(C)C6CCNCC6)ccc5C4=O)c3n2)cc1 [Compound I-31] | ≤ 50 nM |

* * *

- system: full-length ATR (Homo sapiens)
- Construct: Assays were carried out at 25° C. in the presence of 5 nM full-length ATR
- experiment-notes: ATR Inhibition Assay (radioactive-phosphate incorporation)
- Assay type: biochemical
- conditions-used: Ki(app); 5 nM full-length ATR, 10 μM ATP, 800 μM target peptide, 25° C.
pKi: −log10 of the molar value.
Catalogue of compounds with associated pKi

| compound | pKi |
| --- | --- |
| CC(C)S(=O)(=O)c1ccc(-c2cnc3[nH]cc(N4Cc5cc(NCC6CCCNC6)ccc5C4=O)c3n2)cc1 (stereo not drawn) | ≥ 7.30 |
| O=C1c2ccccc2CN1c1c[nH]c2ncc(-c3ccc(S(=O)(=O)C4CCCNC4)cc3)nc12 (stereo not drawn) | ≥ 7.30 |
| CC(C)S(=O)(=O)c1ccc(-c2cnc3[nH]cc(N4Cc5ccc(N6CC[C@@H](N)C6)cc5C4=O)c3n2)cc1 | ≥ 7.30 |
| CC(C)S(=O)(=O)c1ccc(-c2cnc3[nH]cc(N4Cc5c(C#N)cccc5C4=O)c3n2)cc1 | 7.00 to 7.30 |
| CC(C)S(=O)(=O)c1ccc(-c2cnc3[nH]cc(N4Cc5cc(N(C)CCCN(C)C)ccc5C4=O)c3n2)cc1 | ≥ 7.30 |
| CN(C)C(=O)c1ccc(-c2cnc3[nH]cc(N4Cc5ccccc5C4=O)c3n2)cc1 | 7.00 to 7.30 |
| CC(C)S(=O)(=O)c1ccc(-c2cnc3[nH]cc(N4Cc5ccc(CN)cc5C4=O)c3n2)cc1 | ≥ 7.30 |
| CC(C)S(=O)(=O)c1ccc(-c2cnc3[nH]cc(N4Cc5cc(N6CCC(CN)CC6)ccc5C4=O)c3n2)cc1 | 7.00 to 7.30 |
| CC1c2ccccc2C(=O)N1c1c[nH]c2ncc(-c3ccc(S(=O)(=O)C(C)C)cc3)nc12 (stereo not drawn) | ≥ 7.30 |
| CC(C)S(=O)(=O)c1ccc(-c2cnc3[nH]cc(N4Cc5cccc(N)c5C4=O)c3n2)cc1 | ≥ 7.30 |
| CC(C)S(=O)(=O)c1ccc(-c2cnc3[nH]cc(N4Cc5cc(N6CC[C@H](CN)C6)ccc5C4=O)c3n2)cc1 | ≥ 7.30 |
| CC(C)S(=O)(=O)c1ccc(-c2cnc3[nH]cc(N4Cc5cc(CN)ccc5C4=O)c3n2)cc1 | 6.60 to 7.00 |
| CC(C)S(=O)(=O)c1ccc(-c2cnc3[nH]cc(N4Cc5cc(Br)ccc5C4=O)c3n2)cc1 | 7.00 to 7.30 |
| CC(C)S(=O)(=O)c1ccc(-c2cnc3[nH]cc(N4Cc5cc(N6CCNCC6)ccc5C4=O)c3n2)cc1 | ≥ 7.30 |
| CC(C)S(=O)(=O)c1ccc(-c2cnc3[nH]cc(N4Cc5cccc([N+](=O)[O-])c5C4=O)c3n2)cc1 | ≥ 7.30 |
